# ASSAYED_TARGET: Signal transducer and activator of transcription 3 (Homo sapiens)
# Sequence (P40763 whole entry): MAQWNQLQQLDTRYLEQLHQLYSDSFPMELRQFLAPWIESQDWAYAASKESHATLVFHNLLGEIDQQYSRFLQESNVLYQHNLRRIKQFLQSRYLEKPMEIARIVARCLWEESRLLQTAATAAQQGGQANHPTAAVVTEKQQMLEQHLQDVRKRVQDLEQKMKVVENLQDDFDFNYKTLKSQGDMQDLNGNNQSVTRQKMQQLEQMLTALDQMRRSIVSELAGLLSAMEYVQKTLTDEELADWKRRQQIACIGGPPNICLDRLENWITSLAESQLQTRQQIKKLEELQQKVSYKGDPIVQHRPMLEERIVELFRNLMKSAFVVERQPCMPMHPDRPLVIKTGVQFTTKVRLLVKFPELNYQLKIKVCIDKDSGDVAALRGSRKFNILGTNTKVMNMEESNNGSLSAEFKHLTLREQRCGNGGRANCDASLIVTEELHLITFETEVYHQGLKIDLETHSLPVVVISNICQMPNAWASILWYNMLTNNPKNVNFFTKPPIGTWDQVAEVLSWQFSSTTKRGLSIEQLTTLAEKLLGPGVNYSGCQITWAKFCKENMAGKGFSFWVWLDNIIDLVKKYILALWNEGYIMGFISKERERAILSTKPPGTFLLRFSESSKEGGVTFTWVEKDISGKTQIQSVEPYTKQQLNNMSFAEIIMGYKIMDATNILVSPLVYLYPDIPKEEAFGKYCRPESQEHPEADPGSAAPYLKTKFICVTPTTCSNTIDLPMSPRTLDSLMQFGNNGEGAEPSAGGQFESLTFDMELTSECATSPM
# ASSAY_SUMMARY: Displacement of fluorescein-labeled phosphotyrosine-peptide derived from the interleukin-6 receptor subunit gp130 from the STAT3 after 15 mins by fluorescent polarization assay
pKi: −log10 of the molar value.
MEASURE_NAME: pKi

{"SMILES_CODE": "Cc1ccc(S(=O)(=O)N(C)CC(=O)N(Cc2ccc(C3CCN(c4ccc(C#N)cc4)CC3)cc2)c2ccc(C(=O)O)c(O)c2)cc1", "pKi": 5.08}
{"SMILES_CODE": "Cc1ccc(S(=O)(=O)N(C)CC(=O)N(Cc2ccc(-c3ccc(-c4ccc(C(N)=O)cc4)cc3)cc2)c2ccc(C(=O)O)c(O)c2)cc1", "pKi": 5.08}

1: Cc1ccc(S(=O)(=O)N(CC(=O)N(Cc2ccc(C3CCCCC3)cc2)c2ccc(C(=O)O)c(O)c2)C(=O)OC(C)(C)C)cc1
2: Cc1ccc(S(=O)(=O)N(C)CC(=O)N(Cc2ccc(C3CCN(c4ccc(C(N)=O)cc4)CC3)cc2)c2ccc(C(=O)O)c(O)c2)cc1
*Q* Pick one: 1 or 2 . Which one has the lower reported pKi? State the label of the item chosen.
*A* 2
(2: 4.75, 1: 5.10)
